Attribute: Effects Sicklepod
Test system: sicklepod (Cassia obtusifolia)
Method Description: Soil treatment test for upland field; also: key: 0: normal development; 1: Less damaged; 2: Slightly damaged; 3: Moderately damaged; 4: Severely damaged; 5: All killed
Type: in vivo
Condition Set: 500 g/ha, 3 weeks, glass house 25° C.
Just the number, please, no unit after it.

Below are worked cases with known answers.
{"Compound": "FC(F)(F)c1cccc(Oc2cccc(-c3nc4ccccc4o3)n2)c1 [I-a-1]", "Tgt": "sicklepod (Cassia obtusifolia)", "Quantity Kind": "Effects Sicklepod", "Reported Result": 3}
{"Compound": "Fc1ccc2nc(-c3cccc(Oc4cccc(C(F)(F)F)c4)n3)oc2c1 [I-a-6]", "Tgt": "sicklepod (Cassia obtusifolia)", "Quantity Kind": "Effects Sicklepod", "Reported Result": 1}
{"Compound": "COc1ccc2oc(-c3cccc(Oc4cccc(C(F)(F)F)c4)n3)nc2c1 [I-a-4]", "Tgt": "sicklepod (Cassia obtusifolia)", "Quantity Kind": "Effects Sicklepod", "Reported Result": 0}

Consider the compound Fc1ccc2oc(-c3cccc(Oc4cccc(C(F)(F)F)c4)n3)nc2c1 [I-a-2] . State its measured Effects Sicklepod.
3

Consider the compound Fc1ccc2nc(-c3cccc(Oc4ccc(F)c(C(F)(F)F)c4)n3)oc2c1 [I-a-7] . State its measured Effects Sicklepod.
3

Consider the compound FC(F)(F)c1cccc(Oc2cccc(-c3nc4cc(Cl)ccc4o3)n2)c1 [I-a-3] . State its measured Effects Sicklepod.
5

====

System: soybean
Method Description: Soil treatment test for upland field
Type: in vivo
Design: key: 0 = normal development, 5 = all killed
Condition Set: 500 g/ha, 3 weeks, glass house 25° C.
Quantity Kind: Effects Soybean
Just the number, please, no unit after it.

Below are worked cases with known answers.
{"Compound": "CC/C(=C\\c1ccc(F)c(C(F)(F)F)c1)c1nc2cc(Cl)ccc2o1", "Tgt": "soybean", "Reported Result": 5}
{"Compound": "CCC(=Cc1cccc(C(F)(F)F)c1)c1nc2cc(C(F)(F)F)ccc2o1", "Tgt": "soybean", "Reported Result": 0}
{"Compound": "CCC(Sc1cc(C(F)(F)F)nn1C)c1nc2cc(Cl)ccc2o1 (stereo not drawn)", "Tgt": "soybean", "Reported Result": 0}
{"Compound": "CCCC(Oc1cc(C)nc(C#N)n1)c1nc2cc(C#N)ccc2o1 (stereo not drawn)", "Tgt": "soybean", "Reported Result": 0}
{"Compound": "FC(F)(F)c1cccc(Oc2cccc(-c3nc4cc(Cl)ccc4o3)n2)c1", "Tgt": "soybean", "Reported Result": 3}
{"Compound": "Fc1ccc2nc(-c3cccc(Oc4ccc(F)c(C(F)(F)F)c4)n3)oc2c1", "Tgt": "soybean", "Reported Result": 2}

Consider the compound CCC(=Cc1cccc(C(F)(F)F)c1)c1nc2cc(C#N)ccc2o1 . State its measured Effects Soybean.
3

Consider the compound CCC(Oc1cc(C(F)(F)F)nn1C)c1nc2cc(C#N)c(F)cc2o1 (stereo not drawn) . State its measured Effects Soybean.
2

Consider the compound CCC(=Cc1cccc(C(F)(F)F)c1)c1nc2cc(F)c(F)cc2o1 . State its measured Effects Soybean.
5

====

System: monochoria
Method Description: Herbicidal test for paddy field; also: key: 0: normal development; 1: Less damaged; 2: Slightly damaged; 3: Moderately damaged; 4: Severely damaged; 5: All killed
Type: in vivo, Monochoria vaginalis
Condition Set: 500 g/ha, dropwise addition to paddy water at 1.5 leaf stage of barnyard grass; glass house 25° C., 3 weeks; rank 0-5 vs non-treated district
Quantity Kind: Effects Monochoria
Just the number, please, no unit after it.

Below are worked cases with known answers.
{"Compound": "CCC(Sc1cc(C(F)(F)F)nn1C)c1nc2cc(Cl)ccc2o1 (stereo not shown) [Compound 1-e-12]", "Reported Result": 5}
{"Compound": "CCC(Oc1cc(C(F)(F)F)nn1C)c1nc2cc(C#N)c(Cl)cc2o1 (stereo not shown) [Compound 1-e-11]", "Reported Result": 4}
{"Compound": "CCC(Oc1cc(C(F)(F)F)ncn1)c1nc2cc(Cl)ccc2o1 (stereo not shown) [Compound 1-e-66]", "Reported Result": 5}
{"Compound": "CCC(Oc1cc(C(F)(F)F)no1)c1nc2cc(C#N)c(F)cc2o1 (stereo not shown) [Compound 1-e-28]", "Reported Result": 5}
{"Compound": "CCC(Oc1cc(C(F)(F)F)nn1C)c1nc2cc(C#N)c(F)cc2o1 (stereo not shown) [Compound 1-e-10]", "Reported Result": 4}
{"Compound": "CCCC(Oc1cc(C)nc(C#N)n1)c1nc2cc(C#N)ccc2o1 (stereo not shown) [Compound 1-e-70]", "Reported Result": 3}

Consider the compound CCC(Oc1cc(C)nc(SC)n1)c1nc2cc(Cl)ccc2o1 (stereo not shown) [Compound 1-e-64] . State its measured Effects Monochoria.
4

====

System: barnyard grass
Method Description: Herbicidal test for paddy field; also: key: 0: normal development; 1: Less damaged; 2: Slightly damaged; 3: Moderately damaged; 4: Severely damaged; 5: All killed
Type: in vivo, Eschinochloa crusgalli
Condition Set: 500 g/ha, dropwise addition to paddy water at 1.5 leaf stage of barnyard grass; glass house 25° C., 3 weeks; rank 0-5 vs non-treated district
Attribute: Effects Barnyardgrass
Just the number, please, no unit after it.

{"Compound": "CCC(Oc1cc(C(F)(F)F)ncn1)c1nc2cc(Cl)ccc2o1 (stereo not drawn)", "Tgt": "barnyard grass", "Effects Barnyardgrass": 2}

Consider the compound N#Cc1ccc2oc(-c3cccc(Oc4cccc(C(F)(F)F)c4)n3)nc2c1 . State its measured Effects Barnyardgrass.
3

Consider the compound COc1ccc2oc(-c3cccc(Oc4cccc(C(F)(F)F)c4)n3)nc2c1 . State its measured Effects Barnyardgrass.
0

Consider the compound Fc1ccc2nc(-c3cccc(Oc4ccc(F)c(C(F)(F)F)c4)n3)oc2c1 . State its measured Effects Barnyardgrass.
1

Consider the compound CCCC(=Cc1cccc(C(F)(F)F)c1)c1nc2cc(C#N)c(Cl)cc2o1 . State its measured Effects Barnyardgrass.
4

Consider the compound CCC(=Cc1cccc(C(F)(F)F)c1)c1nc2cc(C#N)c(Cl)cc2o1 . State its measured Effects Barnyardgrass.
5

Consider the compound CCC(=Cc1cccc(C(F)(F)F)c1)c1nc2cc(C#N)ccc2o1 . State its measured Effects Barnyardgrass.
5

Consider the compound Fc1ccc2oc(-c3cccc(Oc4cccc(C(F)(F)F)c4)n3)nc2c1 . State its measured Effects Barnyardgrass.
4

Consider the compound CCC(=Cc1cccc(C(F)(F)F)c1)c1nc2cc(F)c(F)cc2o1 . State its measured Effects Barnyardgrass.
5

====

System: corn
Method Description: Soil treatment test for upland field
Format: in vivo
Set-up: key: 0 = normal development, 5 = all killed
Condition Set: 500 g/ha, 3 weeks, glass house 25° C.
Quantity Kind: Effects Corn

Below are worked cases with known answers.
{"Compound": "CCCC(=Cc1cccc(C(F)(F)F)c1)c1nc2cc(F)ccc2o1 [I-c-44]", "Effects Corn": 2}
{"Compound": "FC(F)(F)c1cccc(C=Cc2nc3ccccc3o2)c1 [I-c-1]", "Effects Corn": 1}
{"Compound": "CCCC(=Cc1cccc(C(F)(F)F)c1)c1nc2cc([N+](=O)[O-])ccc2o1 [I-c-74]", "Effects Corn": 2}
{"Compound": "CCC(=Cc1cccc(C(F)(F)F)c1)c1nc2cc(Br)ccc2o1 [I-c-67]", "Effects Corn": 2}

Consider the compound CC(=Cc1cccc(C(F)(F)F)c1)c1nc2cc(Cl)ccc2o1 [I-c-53] . State its measured Effects Corn.
1

Consider the compound CCC(=Cc1cccc(C(F)(F)F)c1)c1nc2cc(C)ccc2o1 [I-c-76] . State its measured Effects Corn.
1

Consider the compound CC(=Cc1cccc(C(F)(F)F)c1)c1nc2cc(C#N)c(Cl)cc2o1 [I-c-141] . State its measured Effects Corn.
0

Consider the compound CCC(=Cc1cccc(C(F)(F)F)c1)c1nc2cc(F)c(F)cc2o1 [I-c-111] . State its measured Effects Corn.
2

Consider the compound CC(=Cc1cccc(C(F)(F)F)c1)c1nc2cc(C#N)c(F)cc2o1 [I-c-135] . State its measured Effects Corn.
1

Consider the compound Fc1ccc2nc(-c3cccc(Oc4cccc(C(F)(F)F)c4)n3)oc2c1 [I-a-6] . State its measured Effects Corn.
0

Consider the compound FC(F)(F)c1cccc(Oc2cccc(-c3nc4cc(Cl)ccc4o3)n2)c1 [I-a-3] . State its measured Effects Corn.
1

Consider the compound CCC(Oc1cc(C(F)(F)F)nn1C)c1nc2cc(C#N)c(F)cc2o1 (centres unmarked) [Compound 1-e-10] . State its measured Effects Corn.
1

Consider the compound Fc1ccc2oc(-c3cccc(Oc4cccc(C(F)(F)F)c4)n3)nc2c1 [I-a-2] . State its measured Effects Corn.
2

Consider the compound CCC(=Cc1cccc(C(F)(F)F)c1)c1nc2cc(C(F)(F)F)ccc2o1 [I-c-86] . State its measured Effects Corn.
1

====

Test system: barnyard grass
Method Description: Herbicidal test for paddy field; also: key: 0: normal development; 1: Less damaged; 2: Slightly damaged; 3: Moderately damaged; 4: Severely damaged; 5: All killed
Type: in vivo, Eschinochloa crusgalli
Condition Set: 500 g/ha, dropwise addition to paddy water at 1.5 leaf stage of barnyard grass; glass house 25° C., 3 weeks; rank 0-5 vs non-treated district
Quantity Kind: Effects Barnyardgrass
Just the number, please, no unit after it.

Below are worked cases with known answers.
{"Compound": "FC(F)(F)c1cccc(C=Cc2nc3ccccc3o2)c1 [I-c-1]", "Effects Barnyardgrass": 3}
{"Compound": "Fc1ccc2nc(-c3cccc(Oc4cccc(C(F)(F)F)c4)n3)oc2c1 [I-a-6]", "Effects Barnyardgrass": 4}
{"Compound": "FC(F)(F)c1cccc(Oc2cccc(-c3nc4ccccc4o3)n2)c1 [I-a-1]", "Effects Barnyardgrass": 4}

Consider the compound FC(F)(F)c1cccc(Oc2cccc(-c3nc4cc(C(F)(F)F)ccc4o3)n2)c1 [I-a-13] . State its measured Effects Barnyardgrass.
2

Consider the compound CC/C(=C\c1ccc(F)c(C(F)(F)F)c1)c1nc2cc(Cl)ccc2o1 [I-c-54] . State its measured Effects Barnyardgrass.
5
